methodDescription: Pharmacokinetic comparative experiment, intravenous injection, plasma by HPLC
Format: in vivo, Beagle dogs
experimentalSetup: male, dog, in vivo; Beagle dogs, intravenous injection, 50 mg/kg.bw; read-out: AUC
observable: AUC (µg·h/mL)
Express it in µg·h/mL; write the number only.

GET /value?item= CC(C)N=C(NC(C)C)SCC(=O)NC1C(=O)N2C(C(=O)O)=C(CSc3nc(=O)c(=O)[nH]n3C)CSC12 (stereo not shown) &field=AUC returns 108

The reported numbers originate from patent US7700581B2.
